Item-by-item account of PDI
Experiment Description: Hydrodynamic diameter and colloidal stability of aggregates by dynamic light scattering
Type: physicochemical
Recorded Conditions: 2.5 μM in PBS; sd^2/mean size^2

Q: Report PDI for CC1=C(/C=C/C(C)=C/C=C/C(C)=C/C=C/C=C(C)/C=C/C=C(C)/C=C/C2=C(C)C[C@@H](OC(=O)CCC(=O)O)CC2(C)C)C(C)(C)CCC1 [Compound 8, β-Cryptoxanthin succinate] please.
A: 0.0360

Q: Report PDI for CC1=C[C@H](OC(=O)CCC(=O)O)CC(C)(C)[C@H]1/C=C/C(C)=C/C=C/C(C)=C/C=C/C=C(C)/C=C/C=C(C)/C=C/C1=C(C)C[C@@H](OC(=O)CCC(=O)O)CC1(C)C [Compound 10, Lutein bissuccinate] please.
A: 0.0108

Q: Report PDI for CC1=C(/C=C/C(C)=C/C=C/C(C)=C/C=C/C=C(C)/C=C/C=C(\C)COC(=O)CCC(=O)O)C(C)(C)CCC1 [Compound 6, 8′-Apo-β-carotenol succinate] please.
A: 0.0206

Q: Report PDI for COc1ccc2[nH]cc(CCNC(=O)CNC(=O)CCC(=O)OC/C(C)=C/C=C/C(C)=C/C=C/C=C(C)/C=C/C=C(C)/C=C/C3=C(C)CCCC3(C)C)c2c1 [Compound 18, 8′-Apo-β-carotenol-melatonin conjugate] please.
A: 0.1229

----------
Experiment Description: BBB-specific permeability assay (BBB-PAMPA)
Type: in vitro ADME
Recorded Conditions: PBS pH 7.4, 37 °C, read-out: BBB-PAMPA Pe
Recorded Metric: Papp at 4 h, 250 μM (nm/s)
Response body: numeric value in nm/s, unit text excluded.

Q: Report Papp at 4 h, 250 μM for COc1ccc2[nH]cc(CCNC(C)=O)c2c1 [Melatonin, melatonin, reference compound] please.
A: 29.7

----------
Item-by-item account of mean size (hydrodynamic diameter)
Experiment Description: Hydrodynamic diameter and colloidal stability of aggregates by dynamic light scattering
Type: physicochemical
Recorded Conditions: 0.625 μM in PBS from DMSO stock, 37 °C
Response body: numeric value in nm, unit text excluded.

Please review the entries below; each comes with its answer.
Q: Report mean size (hydrodynamic diameter) for CC1=C(/C=C/C(C)=C/C=C/C(C)=C/C=C/C=C(C)/C=C/C=C(C)/C=C/C2=C(C)C[C@@H](OC(=O)CCC(=O)O)CC2(C)C)C(C)(C)CCC1 [Compound 8, β-Cryptoxanthin succinate] please.
A: 25.68

Q: Report mean size (hydrodynamic diameter) for COc1ccc2[nH]cc(CCNC(=O)CNC(=O)CCC(=O)O[C@@H]3CC(C)=C(/C=C/C(C)=C/C=C/C(C)=C/C=C/C=C(C)/C=C/C=C(C)/C=C/C(=O)[C@]4(C)C[C@@H](OC(=O)CCC(=O)NCC(=O)NCCc5c[nH]c6ccc(OC)cc56)CC4(C)C)C(C)(C)C3)c2c1 [Compound 17, Capsanthin-dimelatonin conjugate] please.
A: 43.47

Next:
Q: Report mean size (hydrodynamic diameter) for COc1ccc2[nH]cc(CCNC(=O)CNC(=O)CCC(=O)O[C@@H]3CC(C)=C(/C=C/C(C)=C/C=C/C(C)=C/C=C/C=C(C)/C=C/C=C(C)/C=C/C4=C(C)C[C@@H](O)CC4(C)C)C(C)(C)C3)c2c1 [Compound 13, Zeaxanthin-monomelatonin conjugate] please.
A: 551.20

Q: Report mean size (hydrodynamic diameter) for COc1ccc2[nH]cc(CCNC(=O)CNC(=O)CCC(=O)OC/C(C)=C/C=C/C(C)=C/C=C/C=C(C)/C=C/C=C(C)/C=C/C3=C(C)CCCC3(C)C)c2c1 [Compound 18, 8′-Apo-β-carotenol-melatonin conjugate] please.
A: 212.00

Q: Report mean size (hydrodynamic diameter) for COc1ccc2[nH]cc(CCNC(=O)CNC(=O)CCC(=O)O[C@@H]3CC(C)=C(/C=C/C(C)=C/C=C/C(C)=C/C=C/C=C(C)/C=C/C=C(C)/C=C/C4C(C)=C[C@@H](OC(=O)CCC(=O)NCC(=O)NCCc5c[nH]c6ccc(OC)cc56)CC4(C)C)C(C)(C)C3)c2c1 (stereo partly drawn) [Compound 16, Lutein-bismelatonin conjugate] please.
A: 51.10

Q: Report mean size (hydrodynamic diameter) for CC1=C(/C=C/C(C)=C/C=C/C(C)=C/C=C/C=C(C)/C=C/C=C(C)/C=C/C2=C(C)C[C@@H](OC(=O)CCC(=O)O)CC2(C)C)C(C)(C)C[C@H](O)C1 [Compound 11, Zeaxanthin monossuccinate] please.
A: 277.80

Q: Report mean size (hydrodynamic diameter) for COc1ccc2[nH]cc(CCNC(=O)CNC(=O)CCC(=O)O[C@@H]3CC(C)=C(/C=C/C(C)=C/C=C/C(C)=C/C=C/C=C(C)/C=C/C=C(C)/C=C/C4=C(C)CCCC4(C)C)C(C)(C)C3)c2c1 [Compound 15, Cryptoxanthin-melatonin conjugate] please.
A: 31.22

Q: Report mean size (hydrodynamic diameter) for CC1=C(/C=C/C(C)=C/C=C/C(C)=C/C=C/C=C(C)/C=C/C=C(\C)COC(=O)CCC(=O)O)C(C)(C)CCC1 [Compound 6, 8′-Apo-β-carotenol succinate] please.
A: 395.10

Q: Report mean size (hydrodynamic diameter) for CC1=C[C@H](OC(=O)CCC(=O)O)CC(C)(C)[C@H]1/C=C/C(C)=C/C=C/C(C)=C/C=C/C=C(C)/C=C/C=C(C)/C=C/C1=C(C)C[C@@H](OC(=O)CCC(=O)O)CC1(C)C [Compound 10, Lutein bissuccinate] please.
A: 215.4

Q: Report mean size (hydrodynamic diameter) for CC1=C(/C=C/C(C)=C/C=C/C(C)=C/C=C/C=C(C)/C=C/C=C(C)/C=C/C2=C(C)C[C@@H](OC(=O)CCC(=O)O)CC2(C)C)C(C)(C)C[C@H](OC(=O)CCC(=O)O)C1 [Compound 7, Zeaxanthin bissuccinate] please.
A: 429.30

Q: Report mean size (hydrodynamic diameter) for CC1=C(/C=C/C(C)=C/C=C/C(C)=C/C=C/C=C(C)/C=C/C=C(C)/C=C/C(=O)[C@]2(C)C[C@@H](OC(=O)CCC(=O)O)CC2(C)C)C(C)(C)C[C@H](OC(=O)CCC(=O)O)C1 [Compound 9, Capsanthin bissuccinate] please.
A: 10.71

----------
Experiment Description: Hydrodynamic diameter and colloidal stability of aggregates by dynamic light scattering
Assay type: physicochemical
Recorded Conditions: 3.75 μM in PBS; sd^2/mean size^2
Recorded Metric: PDI

Please review the entries below; each comes with its answer.
Q: Report PDI for COc1ccc2[nH]cc(CCNC(=O)CNC(=O)CCC(=O)O[C@@H]3CC(C)=C(/C=C/C(C)=C/C=C/C(C)=C/C=C/C=C(C)/C=C/C=C(C)/C=C/C4=C(C)C[C@@H](O)CC4(C)C)C(C)(C)C3)c2c1 [Compound 13, Zeaxanthin-monomelatonin conjugate] please.
A: 0.0112

Q: Report PDI for CC1=C(/C=C/C(C)=C/C=C/C(C)=C/C=C/C=C(C)/C=C/C=C(C)/C=C/C2=C(C)C[C@@H](OC(=O)CCC(=O)O)CC2(C)C)C(C)(C)C[C@H](O)C1 [Compound 11, Zeaxanthin monossuccinate] please.
A: 0.1357

Q: Report PDI for CC1=C(/C=C/C(C)=C/C=C/C(C)=C/C=C/C=C(C)/C=C/C=C(\C)COC(=O)CCC(=O)O)C(C)(C)CCC1 [Compound 6, 8′-Apo-β-carotenol succinate] please.
A: 0.0268

Next:
Q: Report PDI for COc1ccc2[nH]cc(CCNC(=O)CNC(=O)CCC(=O)O[C@@H]3CC(C)=C(/C=C/C(C)=C/C=C/C(C)=C/C=C/C=C(C)/C=C/C=C(C)/C=C/C(=O)[C@]4(C)C[C@@H](OC(=O)CCC(=O)NCC(=O)NCCc5c[nH]c6ccc(OC)cc56)CC4(C)C)C(C)(C)C3)c2c1 [Compound 17, Capsanthin-dimelatonin conjugate] please.
A: 0.1693

Q: Report PDI for COc1ccc2[nH]cc(CCNC(=O)CNC(=O)CCC(=O)O[C@@H]3CC(C)=C(/C=C/C(C)=C/C=C/C(C)=C/C=C/C=C(C)/C=C/C=C(C)/C=C/C4=C(C)CCCC4(C)C)C(C)(C)C3)c2c1 [Compound 15, Cryptoxanthin-melatonin conjugate] please.
A: 0.0840

Q: Report PDI for CC1=C[C@H](OC(=O)CCC(=O)O)CC(C)(C)[C@H]1/C=C/C(C)=C/C=C/C(C)=C/C=C/C=C(C)/C=C/C=C(C)/C=C/C1=C(C)C[C@@H](OC(=O)CCC(=O)O)CC1(C)C [Compound 10, Lutein bissuccinate] please.
A: 0.0121

Q: Report PDI for CC1=C(/C=C/C(C)=C/C=C/C(C)=C/C=C/C=C(C)/C=C/C=C(C)/C=C/C2=C(C)C[C@@H](OC(=O)CCC(=O)O)CC2(C)C)C(C)(C)C[C@H](OC(=O)CCC(=O)O)C1 [Compound 7, Zeaxanthin bissuccinate] please.
A: 0.0267

----------
Experiment Description: Study of aggregation by UV-Vis spectrophotometry
Format: physicochemical
Recorded Conditions: starting from THF solutions
Recorded Metric: change of UV spectrum with increasing ratio of PBS

Q: Report change of UV spectrum with increasing ratio of PBS for CC1=C(/C=C/C(C)=C/C=C/C(C)=C/C=C/C=C(C)/C=C/C=C(C)/C=C/C2=C(C)C[C@@H](OC(=O)CCC(=O)O)CC2(C)C)C(C)(C)C[C@H](O)C1 [Compound 11, Zeaxanthin monossuccinate] please.
A: bathochromic shift

Q: Report change of UV spectrum with increasing ratio of PBS for COc1ccc2[nH]cc(CCNC(=O)CNC(=O)CCC(=O)O[C@@H]3CC(C)=C(/C=C/C(C)=C/C=C/C(C)=C/C=C/C=C(C)/C=C/C=C(C)/C=C/C4C(C)=C[C@@H](OC(=O)CCC(=O)NCC(=O)NCCc5c[nH]c6ccc(OC)cc56)CC4(C)C)C(C)(C)C3)c2c1 (stereo partly shown) [Compound 16, Lutein-bismelatonin conjugate] please.
A: bathochromic shift

Q: Report change of UV spectrum with increasing ratio of PBS for COc1ccc2[nH]cc(CCNC(=O)CNC(=O)CCC(=O)O[C@@H]3CC(C)=C(/C=C/C(C)=C/C=C/C(C)=C/C=C/C=C(C)/C=C/C=C(C)/C=C/C4=C(C)CCCC4(C)C)C(C)(C)C3)c2c1 [Compound 15, Cryptoxanthin-melatonin conjugate] please.
A: bathochromic shift
